Listing: composite z-score of selected molecules
assay: small molecules captured by biotinylated probe aFGF10 – biochemical, small-molecule microarray, fluorescence 635/667, stem cell growth factor project, primary screen (AID 1071); conditions: higher = more signal;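 further: score merges 667 nm spot intensity and signal to noise from triplicate slides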

Examples with their reported composite z-score follow.
molecule | composite z-score
CC(C)NC(=O)[C@@]1(c2ccc([N+](=O)[O-])cc2)CC(=O)N(C2CCCCC2)[C@@H]1c1ccc(CO)cc1 | 0.817
NCCCCCNC(=O)[C@H]1C[C@H]2C(=O)N3CCC[C@H]3C(=O)N2[C@H]1c1cccc(OCCO)c1 | 0.179

Asked: Reported composite z-score, molecule COCCOC(=O)N1C(=O)[C@@]2(c3cc(C#CC4(O)CCCCCC4)ccc31)[C@H](c1ccc(O)cc1)N1[C@H](c3ccccc3)[C@H](c3ccccc3)OC(=O)[C@H]1[C@@H]2C(=O)N1CCN(c2ncccn2)CC1 : ____
Given back: 0.292

Asked: Next entry: NCCCCCCNC(=O)[C@@H]1C[C@@H]2C(=O)N[C@@H](CCCCN)C(=O)N2[C@@H]1c1ccc(O)cc1
Given back: 0.469

Asked: Next entry: COC(=O)C(CC#Cc1ccc2c(c1)[C@]1(C(=O)N2)[C@H](c2ccc(O)cc2)N2[C@H](c3ccccc3)[C@H](c3ccccc3)OC(=O)[C@H]2[C@@H]1C(=O)NC[C@H](O)c1ccccc1)C(=O)OC
Given back: 1.06

Asked: Next entry: O=C1C[C@]2(c3ccc([N+](=O)[O-])cc3)C(=O)N(C3CC3)c3cc(CO)ccc3[C@H]2N1CC12CC3CC(CC(C3)C1)C2
Given back: -0.0253

Asked: Next entry: [N-]=[N+]=Nc1ccccc1C[C@]1(C(=O)NCCN2CCOCC2)COC(c2ccc(OCCCO)cc2)=N1
Given back: -0.0786

###

Listing: composite z-score of selected compounds
biological target: Epidermal growth factor receptor (Homo sapiens) (UniProt P00533); experiment: compounds binding epidermal growth factor receptor – biochemical, small-molecule microarray, 635 nm fluorescence, primary screen (AID 1104); settings: EGFR binding, higher = more signal;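 further: score merges 667 nm emission intensity with spot signal to noise over triplicate slides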
Sequence (P00533 whole entry, looked up): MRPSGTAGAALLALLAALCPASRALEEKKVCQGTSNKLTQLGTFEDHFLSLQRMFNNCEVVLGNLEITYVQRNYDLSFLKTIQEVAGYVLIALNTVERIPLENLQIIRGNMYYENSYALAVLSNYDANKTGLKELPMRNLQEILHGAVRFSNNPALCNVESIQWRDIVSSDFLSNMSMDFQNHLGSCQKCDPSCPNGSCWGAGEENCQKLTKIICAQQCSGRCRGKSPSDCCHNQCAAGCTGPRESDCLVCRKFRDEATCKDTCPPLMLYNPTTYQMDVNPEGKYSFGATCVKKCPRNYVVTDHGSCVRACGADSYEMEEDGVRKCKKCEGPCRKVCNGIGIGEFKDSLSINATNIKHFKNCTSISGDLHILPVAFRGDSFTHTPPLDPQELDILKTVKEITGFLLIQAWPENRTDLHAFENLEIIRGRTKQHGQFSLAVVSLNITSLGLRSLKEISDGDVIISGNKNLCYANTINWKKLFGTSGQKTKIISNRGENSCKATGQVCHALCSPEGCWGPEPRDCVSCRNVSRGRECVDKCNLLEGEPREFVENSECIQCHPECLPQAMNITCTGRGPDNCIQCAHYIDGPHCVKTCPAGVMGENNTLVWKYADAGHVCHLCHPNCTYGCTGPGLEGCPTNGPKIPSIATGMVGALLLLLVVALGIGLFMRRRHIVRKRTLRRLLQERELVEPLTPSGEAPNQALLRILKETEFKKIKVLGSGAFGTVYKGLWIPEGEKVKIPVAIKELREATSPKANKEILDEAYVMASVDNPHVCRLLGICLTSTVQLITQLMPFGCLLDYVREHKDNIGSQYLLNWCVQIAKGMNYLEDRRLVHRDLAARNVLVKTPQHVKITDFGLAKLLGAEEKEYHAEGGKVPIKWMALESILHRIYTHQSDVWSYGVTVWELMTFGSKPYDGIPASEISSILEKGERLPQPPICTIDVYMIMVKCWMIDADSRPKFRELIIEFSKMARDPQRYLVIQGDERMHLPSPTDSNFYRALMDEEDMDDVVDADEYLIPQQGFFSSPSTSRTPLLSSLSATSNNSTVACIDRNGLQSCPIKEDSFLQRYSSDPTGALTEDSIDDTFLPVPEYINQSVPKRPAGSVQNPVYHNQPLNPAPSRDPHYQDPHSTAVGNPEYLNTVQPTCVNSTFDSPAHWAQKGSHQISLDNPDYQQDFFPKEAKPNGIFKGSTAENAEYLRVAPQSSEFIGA
Respond using a number only.

compound | composite z-score
CCCC#C[Si](O[C@H](CC)c1cn([C@H](C)c2ccccc2)nn1)(C(C)C)C(C)C | 0.564
COc1ccc([Si](C)(C)[C@@H]2[C@@H](CC(=O)N3CCC[C@H]3CO)O[C@]3(C(=O)N(Cc4cccc(N5C(=O)COc6ccccc65)c4)c4ccccc43)[C@H]2C)cc1 | 0.447
CCOC(=O)C[C@H]1[C@H](OC(=O)Cc2ccc3c(c2)OCO3)[C@@H](NC(=O)c2ccc3ccccc3n2)c2cc(OCCCO)ccc2N1C(=O)c1ccc2ccccc2n1 | 0.267
C#Cc1cc2ccccc2oc1=O | -2.35
COc1ccc(C(=O)Nc2ccc(CN3C(=O)[C@]4(O[C@H](CC(=O)N5Cc6ccccc6C[C@H]5CO)[C@@H]([Si](C)(C)c5ccc(OC)cc5)[C@@H]4C)c4ccccc43)cc2)cc1 | 0.749
COCCOC(=O)N1C(=O)[C@@]2(c3cc(C#CC4=CCCCC4)ccc31)[C@H](c1ccccc1OCCO)N1[C@H](c3ccccc3)[C@H](c3ccccc3)OC(=O)[C@H]1[C@@H]2C(=O)NC[C@H](O)c1ccccc1 | 0.741
COc1ccc(CCNC(=O)[C@@]2(Sc3ccc(C)cc3)CC(=O)N(Cc3ccccc3C(F)(F)F)[C@@H]2c2ccc(CO)cc2I)cc1 | -1.24
COC(=O)[C@@]1(Cc2ccc(OC)cc2)[C@H]2c3cc(C(=O)N(C)C)n(Cc4ccc(OC(F)(F)F)cc4)c3C[C@H]2CN1C(=O)c1ccccc1 | -0.274

Asked: Reported composite z-score, compound CC[C@@H]1O[Si](C(C)C)(C(C)C)c2c1cc(-c1cc(C)c(OC)c(C)c1)nc2-c1ccc(Oc2ccccc2)cc1 : ____
Given back: -0.451

Asked: Next entry: O[C@@H](Cc1ccccc1)[C@@H](/C=C/C1CC1)N(CC#Cc1ccccc1)Cc1ccccc1Br
Given back: -1.29

Asked: Next entry: CCCCC(=C=CC[C@H](O)c1ccc(OCCO)cc1)CCO
Given back: -0.709

Asked: Next entry: C=CC[C@@H](OC(=O)Nc1ccc(OC)cc1)c1ccc(O)c(F)c1
Given back: -1.2

Asked: Next entry: COc1ccc(C#Cc2ccc3c(c2)[C@]2(C(=O)N3)[C@H](C(=O)O)[C@H]3C(=O)O[C@H](c4ccccc4)[C@H](c4ccccc4)N3[C@@H]2c2ccc(O)cc2)cc1
Given back: -0.165
